Data origin: patent US8415380B2

Collected melting point values appear next to each entry.

The cases that follow already have their melting point on record.
- entrySmiles: "Cc1cc(-c2ccc(C(F)(F)F)nc2)cc(-c2cccc(-c3cccc(S(=O)(=O)NC(C)(C)C)c3)n2)n1"
  melting point: "187 to 188 °C"
- entrySmiles: "Cc1cc(-c2ccc(C(F)(F)F)cn2)nc(-c2cccc(-c3cccc(S(N)(=O)=O)c3)n2)n1"
  melting point: "246 to 252 °C"

Could you now look at the following compound, please?
Input Cc1cc(-c2ccc(C(F)(F)F)nc2)cc(-c2cccc(-c3ccc(S(N)(=O)=O)s3)c2)n1 , output reported melting point.
231 to 233 °C
